Items are presented alongside their recorded GI50.
test system: HL-60(TB) leukemia; test: NCI tumour cell line growth inhibition, 48 h
endpoint: GI50

                                   compound  reported_measurement
0  CC(=O)[O-].CC(=O)[O-].O=C([CH-]C(=O)c1ccccc1)c1ccccc1.[Nd+3].[OH3+]               7.85 µM
1  CCCCCOC(=O)Nc1nc(=O)n(C2OC(C)C(O)C2O)cc1F (stereo not given)               5070 µM
2  CCOC(=O)c1c(-c2ccccc2)n2c(=O)cc(C)c3c(O)c(O)cc1c32               3.34 µM
3  CS(=O)(=O)N1CCC(Nc2ncc(C(=O)c3c(F)cccc3F)c(N)n2)CC1               8.65 µM
4        O=C(O)c1ccc(CSc2nc3ccccc3[nH]2)cc1              > 100 µM

Value source: PubChem BioAssay (NCI)
